target: Serine/threonine-protein kinase mTOR (Homo sapiens, UniProt P42345)
outcome measure: pKd
Give bare numbers, as −log10 of the molar value.

response.value for O=c1cc(N2CCOCC2)cc(N2C[C@H]3C[C@H]3[C@@H]2Cc2ccccc2)[nH]1 (field: pKd) = 5.34

----------
Hi there, I'd appreciate the recorded Ratio for every entry that follows.
test: Effective efflux ratio of apparent permeability across basolateral to apical over apical to basolateral side in MDCK-MDR1 cells assessed as efflux ratio after 1 hr by LC-MS/MS analysis; type: ADME, cell-based, Canis lupus familiaris; settings: dog, mdck-mdr1, 1 h
Answers are plain numbers.

Solved cases below.
* O=c1cc(N2CCOCC2)cc(N2CCC[C@@H]2Cc2ccccc2)[nH]1 | 4.8
* Oc1cc(N2CCOCC2)nc(N2CCC[C@@H]2Cc2ccccc2)n1 | 4.5
* CO[C@@H]1CCN(c2cc(N3CCOCC3)cc(=O)[nH]2)[C@H]1Cc1ccccc1 | 12
* O=c1cc(N2CCOCC2)nc(N2CCCCC[C@@H]2Cc2ccccc2)[nH]1 | 3.1
* O=c1cc(N2CCOCC2)cc(N2C[C@@H]3C[C@@H]3[C@@H]2Cc2ccccc2)[nH]1 | 2.9
* O=c1cc(N2CCOCC2)cc(N2C[C@H]3C[C@H]3[C@@H]2Cc2ccccc2)[nH]1 | 6.7

Return reported Ratio values for all items listed beneath this line.
1. O=c1cc(N2CCOCC2)cc(N2CCCCC[C@@H]2Cc2ccccc2)[nH]1
2. O=c1cc(N2CCOCC2)cc(N2CCC(F)(F)[C@@H]2Cc2ccccc2)[nH]1
3. O=c1cc(N2CCOCC2)cc(N2CC[C@@H](F)[C@@H]2Cc2ccccc2)[nH]1

1. 4.3
2. 2.6
3. 7.2

----------
assay: Clearance in C57Bl/6 mouse at 0.8 mg/kg, iv administered as single dose; format: ADME, organism-based; details: in vivo
outcome measure: clearance (mL/min/kg)
Answers are plain numbers, in mL/min/kg.

Measured clearance, C[C@@H]1CCN(c2nc(N3CCOCC3)cc(=O)[nH]2)[C@H]1Cc1ccccc1 : 115

----------
assay: Kinetic solubility of the compound in pH 7.4 PBS buffer incubated for 2 hrs using orbital shaker by LC-UV mass spectrometry; format: physicochemical; details: read-out: Kinetic_solubility
Please mark Condition met if the recorded solubility kinetic at 2 h is equal to or greater than 50 µg/mL, and Condition not met if it falls below.

- O=c1cc(N2CCOCC2)cc(N2C[C@@H]3C[C@@H]3[C@@H]2Cc2ccccc2)[nH]1: Condition met

Determine whether measured solubility kinetic at 2 h meets or exceeds 50 µg/mL for COc1ccc2c(c1)Cc1cccc(-c3cc(=O)cc(N4CCOCC4)o3)c1S2
Condition not met

Test whether the molecule C[C@@H]1CN(c2cc(N3CCCCC[C@@H]3Cc3ccccc3)[nH]c(=O)c2)CCO1 records solubility kinetic at 2 h of 50 µg/mL or higher.
Condition met

API: above_or_equal(metric=solubility kinetic at 2 h, cutoff=50 µg/mL) for item O=c1cc(N2CCOCC2)cc(N2CCC[C@H]2Cc2ccccc2)[nH]1
Condition met

----------
assay: Bioavailability in C57Bl/6 mouse at 10 mg/kg, po or 2 mg/kg, iv; conditions: in vivo
outcome measure: bioavailability (%)
Numbers only, in %.

Lookup result for O=c1cc(N2CCOCC2)cc(N2CCCCC[C@@H]2Cc2ccccc2)[nH]1 ; measured bioavailability: 68
